System: Hepatocyte
Assay: Drug uptake in sandwich-cultured human hepatocytes measured per mg of protein at 0.05 uM at 37 degC after 5 mins by scintillation spectroscopy
Type: ADME, cell-based
Test Readout: Drug uptake (fmol/min)
Express the result in fmol/min but write the number alone.

Per the record, C[C@H]1O[C@@H](O[C@H]2[C@@H](O)C[C@H](O[C@H]3[C@@H](O)C[C@H](O[C@H]4CC[C@@]5(C)[C@H](CC[C@@H]6[C@@H]5C[C@@H](O)[C@]5(C)[C@@H](C7=CC(=O)OC7)CC[C@]65O)C4)O[C@@H]3C)O[C@@H]2C)C[C@H](O)[C@@H]1O [DIGOXIN] has Drug uptake of 153

---

Assay: Drug uptake in rat hepatocytes
Assay type: ADME, cell-based, Hepatocyte
Test Readout: Km (µM)
Express the result in µM but write the number alone.

Per the record, "C[C@H]1O[C@@H](O[C@H]2[C@@H](O)C[C@H](O[C@H]3[C@@H](O)C[C@H](O[C@H]4CC[C@@]5(C)[C@H](CC[C@@H]6[C@@H]5C[C@@H](O)[C@]5(C)[C@@H](C7=CC(=O)OC7)CC[C@]65O)C4)O[C@@H]3C)O[C@@H]2C)C[C@H](O)[C@@H]1O" has Km of 0.18

---

Biological target: OATP1B3 (Homo sapiens)
Sequence (Q9NPD5 whole entry): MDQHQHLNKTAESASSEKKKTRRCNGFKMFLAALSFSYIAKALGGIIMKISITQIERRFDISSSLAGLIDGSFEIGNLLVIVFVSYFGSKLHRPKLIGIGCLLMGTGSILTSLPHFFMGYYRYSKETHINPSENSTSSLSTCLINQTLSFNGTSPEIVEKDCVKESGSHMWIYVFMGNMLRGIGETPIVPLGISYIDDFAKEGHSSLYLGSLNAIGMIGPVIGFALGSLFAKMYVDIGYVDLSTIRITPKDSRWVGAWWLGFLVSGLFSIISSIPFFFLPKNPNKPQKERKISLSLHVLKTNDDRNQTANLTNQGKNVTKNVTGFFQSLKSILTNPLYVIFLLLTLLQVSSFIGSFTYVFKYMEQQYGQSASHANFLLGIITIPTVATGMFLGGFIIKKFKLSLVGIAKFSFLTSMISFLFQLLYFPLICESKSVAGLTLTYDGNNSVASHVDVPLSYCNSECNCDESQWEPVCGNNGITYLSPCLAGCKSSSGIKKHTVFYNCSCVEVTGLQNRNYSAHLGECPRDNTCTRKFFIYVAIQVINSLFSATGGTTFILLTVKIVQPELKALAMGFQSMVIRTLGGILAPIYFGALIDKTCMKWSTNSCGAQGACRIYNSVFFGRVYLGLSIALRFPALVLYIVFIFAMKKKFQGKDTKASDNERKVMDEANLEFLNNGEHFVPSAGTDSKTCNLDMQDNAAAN
Test: Drug uptake ratio assessed as enzyme-mediated uptake in HEK293 cells expressing human OATP1B3 at 1 uM at 37 degC for 3 mins cells pretreated with sodium butyrate by liquid scintillation spectroscopy relative to wild type
Type: ADME, cell-based
Test Readout: uptake ratio at 0.05 h, 1 µM
No unit in the answer, please; the number alone is enough.

Example entries begin here.
| Compound | uptake ratio at 0.05 h, 1 µM |
| --- | --- |
| C[C@]12CC[C@@H]3c4ccc(O)cc4CC[C@H]3[C@@H]1CC[C@@H]2O[C@@H]1O[C@H](C(=O)O)[C@@H](O)[C@H](O)[C@H]1O [ESTRADIOL 17B GLUCURONIDE] | 74 |
| CC(C)c1nc(N(C)S(C)(=O)=O)nc(-c2ccc(F)cc2)c1/C=C/[C@@H](O)C[C@@H](O)CC(=O)O | 16 |

Pending compound:
Per the record, "Cc1ncc2n1-c1ccc(Cl)cc1C(c1ccccc1F)=NC2" has uptake ratio at 0.05 h, 1 µM of 2.1
